# target: CDK2/Cyclin A (Homo sapiens)
# measurementProtocol: Inhibition of CDK2/Cyclin A Retinoblastoma Kinase Activity
# Type: biochemical
# condition: at 0.03 μM
attributeMeasured: CDK2 % Inhibition at 0.03 μM (%)

In the examples that follow, each entry is paired with its recorded CDK2 % Inhibition at 0.03 μM.
- Nc1nc(NC2CCN(C(=O)C3(c4ccccc4)CC3)CC2)sc1C(=O)c1c(F)cccc1F [Example R90]: −2
- Nc1nc(NC2CCN(C(=O)c3cccc(Cl)c3)CC2)sc1C(=O)c1c(F)cccc1F [Example R132]: 28
- Nc1nc(NC2CCN(C(=O)c3ccno3)CC2)sc1C(=O)c1c(F)cccc1F [Example R46]: 71

(a) Cc1ccc(O)c(C(=O)N2CCC(Nc3nc(N)c(C(=O)c4c(F)cccc4F)s3)CC2)c1 [Example R122]
(b) CSc1ccc(C(=O)N2CCC(Nc3nc(N)c(C(=O)c4c(F)cccc4F)s3)CC2)cc1 [Example R150]
(c) COc1ccccc1CCC(=O)N1CCC(Nc2nc(N)c(C(=O)c3c(F)cccc3F)s2)CC1 [Example R175]
(d) COCCOC(=O)N1CCC(Nc2nc(N)c(C(=O)c3c(F)cccc3F)s2)CC1 [Example R82]
(e) Cc1onc(-c2ccccc2)c1C(=O)N1CCC(Nc2nc(N)c(C(=O)c3c(F)cccc3F)s2)CC1 [Example R21]
Please rank these compounds by CDK2 % Inhibition at 0.03 μM in descending order. // format: requested-order list of labels
a, b, c, e, d
(a: 61%, b: 40%, c: 19%, e: 2%, d: −11%)

(I) Cc1ccc(S(=O)(=O)N[C@@H](Cc2ccccc2)C(=O)N2CCC(Nc3nc(N)c(C(=O)c4c(F)cccc4F)s3)CC2)cc1 [Example R75]
(II) COc1ccc(O)c(C(=O)N2CCC(Nc3nc(N)c(C(=O)c4c(F)cccc4F)s3)CC2)c1 [Example R121]
Lab notebook, comparison: I versus II , higher CDK2 % Inhibition at 0.03 μM goes to which? In your reply, give the label of the chosen option.
II

(1) CNc1ccc(C(=O)N2CCC(Nc3nc(N)c(C(=O)c4c(F)cccc4F)s3)CC2)cc1 [Example R147]
(2) Cc1nnsc1C(=O)N1CCC(Nc2nc(N)c(C(=O)c3c(F)cccc3F)s2)CC1 [Example R70]
Select one. Lower CDK2 % Inhibition at 0.03 μM: 1 or 2 When you have decided, please share the label of that item.
2

(A) Nc1nc(NC2CCN(C(=O)c3ccc(OC(F)(F)F)cc3)CC2)sc1C(=O)c1c(F)cccc1F [Example R22]
(B) CCOC(=O)CCCC(=O)N1CCC(Nc2nc(N)c(C(=O)c3c(F)cccc3F)s2)CC1 [Example R3]
Which of these two has the smaller recorded CDK2 % Inhibition at 0.03 μM: A or B ? I would appreciate it if you answered with the label of your choice.
B

(I) Nc1nc(NC2CCN(C(=O)c3c(Cl)cccc3Cl)CC2)sc1C(=O)c1c(F)cccc1F [Example R110]
(II) COc1cc(OC)cc(C(=O)N2CCC(Nc3nc(N)c(C(=O)c4c(F)cccc4F)s3)CC2)c1 [Example R137]
Quick one: lower CDK2 % Inhibition at 0.03 μM, I or II ? Identify your pick by its label.
I

(I) Nc1nc(NC2CCN(C(=O)[C@H](Cc3ccccc3)NS(=O)(=O)c3ccc([N+](=O)[O-])cc3)CC2)sc1C(=O)c1c(F)cccc1F [Example R74]
(II) Cc1c(S(=O)(=O)c2ccc(Cl)cc2)csc1C(=O)N1CCC(Nc2nc(N)c(C(=O)c3c(F)cccc3F)s2)CC1 [Example R47]
Input pair: I , II . Output: entry with lower CDK2 % Inhibition at 0.03 μM. Reply briefly: the label of your chosen item.
II
(II: −7%, I: 3%)

(P) Nc1nc(NC2CCN(C(=O)c3ccc4c(c3)C(=O)c3ccccc3C4=O)CC2)sc1C(=O)c1c(F)cccc1F [Example R34]
(Q) Nc1nc(NC2CCN(C(=O)c3cccc(O)c3)CC2)sc1C(=O)c1c(F)cccc1F [Example R138]
When the recorded CDK2 % Inhibition at 0.03 μM values are compared, which is smaller: that of P or that of Q ? # reply format: chosen label
P

(A) Cc1ccc(C(=O)N2CCC(Nc3nc(N)c(C(=O)c4c(F)cccc4F)s3)CC2)cc1F [Example R131]
(B) CCCCC(CC)C(=O)N1CCC(Nc2nc(N)c(C(=O)c3c(F)cccc3F)s2)CC1 (stereo not shown) [Example R168]
Param pair: A , B . Output: the one whose CDK2 % Inhibition at 0.03 μM is numerically greater. Respond with the label that goes with your answer.
A

The reported numbers originate from patent US20050101595A1.
